All figures here come from paper PMC10318456.

- test_system: PSEN1 T147A–APH1A γ-secretase complex (Homo sapiens, UniProt P49768, T147A)
- Construct: expressed in transfected cells; host or cells: Psen1/2 double KO/Aph1ABC triple KO MEFs, pools without clonal selection
- measurement_notes: Aβ40 secretion, MEF cell pool restored with PSEN1 T147A–APH1A
- Assay type: cell-based
- measurement_setup: PSEN1 T147A (TM2)–APH1A cell pool; N = 3 to 4; mean (95% CI); decimal comma
property_name: IC50 (µM)
Please respond with the number in µM and leave the unit unwritten.

Need IC50, item C[C@H](NC(=O)Cc1cc(F)cc(F)c1)C(=O)N[C@H](C(=O)OC(C)(C)C)c1ccccc1 0.477

* * *

- test_system: PSEN2-APH1A γ-secretase complex (Homo sapiens, UniProt P49810+Q92542+Q96BI3+Q9NZ42)
- measurement_notes: Aβ40 secretion by MEF cell line expressing only PSEN2-APH1A γ-secretase (APP-C99-GFP reporter)
- measurement_setup: 8 h, Beerse site unless otherwise indicated, read-out: IC50, Aβ40 peptides
property_name: pIC50
FYI, pIC50 means -log10 of a concentration in mol per litre.

Need pIC50, item O=S(=O)(c1ccc(Cl)cc1)N1[C@H]2CC[C@@H]([C@H]1c1ccc(C(F)(F)F)cc1)[C@@H](O)C2 [(+)-9b] 5.78

* * *

- test_system: PSEN1 Y154A–APH1A γ-secretase complex (Homo sapiens, UniProt P49768, Y154A)
- Construct: expressed in transfected cells; host or cells: Psen1/2 double KO/Aph1ABC triple KO MEFs, pools without clonal selection
- measurement_notes: Aβ40 secretion, MEF cell pool restored with PSEN1 Y154A–APH1A
- Assay type: cell-based
- measurement_setup: PSEN1 Y154A (TM2)–APH1A cell pool; N = 3 to 4; mean (95% CI); decimal comma
property_name: IC50 (µM)
Please respond with the number in µM and leave the unit unwritten.

Reported IC50 for PSEN1 Y154A–APH1A γ-secretase complex (Homo sapiens, UniProt P49768, Y154A), given C[C@H](NC(=O)Cc1cc(F)cc(F)c1)C(=O)N[C@H](C(=O)OC(C)(C)C)c1ccccc1 [DAPT] ? 0.103

* * *

- test_system: PSEN1 S170A–APH1A γ-secretase complex (Homo sapiens, UniProt P49768, S170A)
- Construct: expressed in transfected cells; host or cells: Psen1/2 double KO/Aph1ABC triple KO MEFs, pools without clonal selection
- measurement_notes: Aβ40 secretion, MEF cell pool restored with PSEN1 S170A–APH1A
- Format: cell-based
- measurement_setup: PSEN1 S170A (TM3)–APH1A cell pool; N = 3 to 4; mean (95% CI); decimal comma
Measured IC50 accompanies every entry in the list below.
Please respond with the number in µM and leave the unit unwritten.

O=S(=O)(c1ccc(Cl)cc1)N1[C@H]2CC[C@@H]([C@H]1c1ccc(C(F)(F)F)cc1)[C@@H](O)C2 [(+)-9b]; 0.132

Field: next compound
Reported IC50 for PSEN1 S170A–APH1A γ-secretase complex (Homo sapiens, UniProt P49768, S170A), given C[C@H](NC(=O)Cc1cc(F)cc(F)c1)C(=O)N[C@H](C(=O)OC(C)(C)C)c1ccccc1 [DAPT] ? 0.139

* * *

- test_system: PSEN1-APH1A γ-secretase complex (Homo sapiens)
- Construct: expressed in transfected cells; host or cells: Psen1/2 double KO/Aph1ABC triple KO MEFs, pMSCV retroviral PSEN-IRES-APH1
- measurement_notes: Aβ40 secretion by MEF cell line expressing only PSEN1-APH1A γ-secretase (APP-C99-GFP reporter)
- Type: cell-based
- measurement_setup: 8 h, Beerse site unless otherwise indicated, read-out: IC50, Aβ40 peptides
- Excerpt: Mouse embryonic fibroblast (MEF) cells deficient for the Psen and Aph1 genes (Psen1/2^−/−, Aph1ABC^−/−) were reconstituted with human PSEN1 or PSEN2 and with human APH1A or APH1B to generate four independent cell lines, each constitutively expressing exclusively one type of γ-secretase complex (Fig. S1A) ([19]). A human APP-C99-GFP reporter was introduced to enable the measurement of Aβ peptides in the conditioned media of the cells to monitor γ-secretase activity. […]
Measured IC50 accompanies every entry in the list below.

O=S(=O)(NC1CCC(c2cc(F)ccc2F)(S(=O)(=O)c2ccc(Cl)cc2)CC1)C(F)(F)F (stereo not drawn); 1.4 nM
O=C(O)CC[C@H]1CC[C@@](c2cc(F)ccc2F)(S(=O)(=O)c2ccc(Cl)cc2)CC1; 5.3 nM

Field: next molecule
Reported IC50 for PSEN1-APH1A γ-secretase complex (Homo sapiens), given O=S(=O)(c1ccc(Cl)cc1)N1[C@H]2CC[C@@H]([C@H]1c1ccc(C(F)(F)F)cc1)[C@@H](O)C2 [(+)-9b] ? 22 nM
